# Test Target: mKCNQ2 channels (Mus musculus)
# Construct: expressed in transfected cells
# Sequence (Q9Z351 whole entry): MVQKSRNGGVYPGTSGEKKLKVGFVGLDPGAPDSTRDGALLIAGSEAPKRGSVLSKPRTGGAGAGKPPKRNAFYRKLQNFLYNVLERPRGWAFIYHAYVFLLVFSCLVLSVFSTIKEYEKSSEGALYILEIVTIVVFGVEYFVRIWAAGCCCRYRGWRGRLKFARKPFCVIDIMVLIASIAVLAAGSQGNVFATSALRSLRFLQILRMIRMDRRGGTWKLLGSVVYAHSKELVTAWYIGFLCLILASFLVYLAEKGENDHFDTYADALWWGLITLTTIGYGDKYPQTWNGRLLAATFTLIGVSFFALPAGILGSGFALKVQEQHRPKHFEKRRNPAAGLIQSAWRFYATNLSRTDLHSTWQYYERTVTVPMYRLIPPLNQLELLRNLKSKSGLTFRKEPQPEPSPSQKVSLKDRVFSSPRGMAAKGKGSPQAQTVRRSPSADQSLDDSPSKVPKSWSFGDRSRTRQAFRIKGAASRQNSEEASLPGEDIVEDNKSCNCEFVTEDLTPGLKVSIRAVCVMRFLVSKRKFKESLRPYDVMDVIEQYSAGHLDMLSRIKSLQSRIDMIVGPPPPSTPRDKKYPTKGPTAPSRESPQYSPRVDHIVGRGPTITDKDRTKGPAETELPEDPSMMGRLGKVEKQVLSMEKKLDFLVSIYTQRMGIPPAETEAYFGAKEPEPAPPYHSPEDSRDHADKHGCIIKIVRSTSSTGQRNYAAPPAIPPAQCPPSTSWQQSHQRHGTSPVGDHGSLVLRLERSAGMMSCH
# Method Description: Whole-cell patch-clamp recordings of mKCNQ2 currents
# Type: cell-based
# Run Parameters: HEK 293 stable cell line expressing mKCNQ2; @ −40 mV; room temperature
Would you mind telling me the reported EC50 of each entry?

Molecule: C[C@H](NC(=O)/C=C/c1cc(F)ccc1F)c1cccc(Oc2ccncc2)c1 [Example 45]
Test Target: mKCNQ2 channels (Mus musculus)
EC50: 0.11 µM
//
Molecule: C[C@H](NC(=O)/C=C/c1ccccc1F)c1cccc(Oc2cccnc2)c1 [Example 15]
Test Target: mKCNQ2 channels (Mus musculus)
EC50: 0.198 µM

Could you now consider this next molecule?
Exercise: GET /values?readout=EC50&item= C[C@H](NC(=O)/C=C/c1cc(F)ccc1F)c1cccc(Oc2ccccn2)c1 [Example 9]
Key: 0.0012 µM
